src = patent US10213429B2

# studySystem: sGC α1/β1 heterodimer (Homo sapiens, UniProt Q02108+Q02153)
# Construct: expressed in transfected cells; host or cells: CHO-K1 (clone #7, CHO-K1/sGC)
# Sequence (Q02108 whole entry): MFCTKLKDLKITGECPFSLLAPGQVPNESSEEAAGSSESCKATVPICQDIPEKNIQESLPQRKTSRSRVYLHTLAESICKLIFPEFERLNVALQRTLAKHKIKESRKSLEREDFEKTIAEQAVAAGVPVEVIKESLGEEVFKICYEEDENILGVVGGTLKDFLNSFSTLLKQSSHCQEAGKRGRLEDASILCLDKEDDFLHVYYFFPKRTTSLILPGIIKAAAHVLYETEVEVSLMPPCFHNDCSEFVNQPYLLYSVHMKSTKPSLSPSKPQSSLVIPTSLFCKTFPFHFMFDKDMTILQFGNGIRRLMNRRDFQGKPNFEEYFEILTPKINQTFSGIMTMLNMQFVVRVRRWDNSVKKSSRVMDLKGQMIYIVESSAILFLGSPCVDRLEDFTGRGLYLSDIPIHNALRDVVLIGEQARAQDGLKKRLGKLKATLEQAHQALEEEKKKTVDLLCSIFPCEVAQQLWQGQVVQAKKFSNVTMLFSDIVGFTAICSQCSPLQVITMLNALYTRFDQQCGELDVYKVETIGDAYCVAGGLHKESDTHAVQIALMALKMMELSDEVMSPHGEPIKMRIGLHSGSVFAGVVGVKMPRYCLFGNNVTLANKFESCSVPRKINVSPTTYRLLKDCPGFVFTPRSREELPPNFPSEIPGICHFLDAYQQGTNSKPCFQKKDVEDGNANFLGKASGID
# Sequence (Q02153 whole entry): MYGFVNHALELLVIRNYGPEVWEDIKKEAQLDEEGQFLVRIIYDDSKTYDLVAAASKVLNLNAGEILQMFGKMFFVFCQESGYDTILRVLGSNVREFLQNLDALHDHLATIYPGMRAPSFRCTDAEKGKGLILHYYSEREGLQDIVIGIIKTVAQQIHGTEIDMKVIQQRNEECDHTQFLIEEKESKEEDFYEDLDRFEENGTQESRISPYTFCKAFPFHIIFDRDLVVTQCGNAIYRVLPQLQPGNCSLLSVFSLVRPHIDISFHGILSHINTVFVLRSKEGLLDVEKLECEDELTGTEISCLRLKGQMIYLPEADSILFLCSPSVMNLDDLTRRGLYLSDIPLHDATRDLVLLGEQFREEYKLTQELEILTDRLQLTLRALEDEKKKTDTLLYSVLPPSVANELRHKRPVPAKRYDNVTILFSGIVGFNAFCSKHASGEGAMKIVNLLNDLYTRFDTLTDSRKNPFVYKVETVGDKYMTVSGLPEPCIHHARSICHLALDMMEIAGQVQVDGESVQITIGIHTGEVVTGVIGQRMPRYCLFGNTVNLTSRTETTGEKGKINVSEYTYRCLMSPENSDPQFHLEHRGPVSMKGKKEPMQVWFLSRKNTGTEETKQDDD
# testMethodNotes: Cell-Based sGC Functional Assay (CASA Assay), cGMP by HTRF in CHO-K1/sGC cells
# measurementSetup: cGMP production, 1 hr at 37° C., 4P fit, presence or absence of 1 μM DETA-NO not given, read-out: IP (nM) (inflection point)
reportedMetric: EC50 (nM)

Prompt: Sample CC1(c2ccc(Cl)c(F)c2)C(=O)Nc2nc(-c3cn4ccnc4c(CCC(F)(F)F)n3)ncc21 (stereo not drawn) [Example 56B] — what was its EC50?
Completion: 70

[P] CC1(c2ccc(Cl)cn2)C(=O)Nc2nc(-c3cn4ccnc4c(CCCC(F)(F)F)n3)ncc21 (stereo not drawn) [Example 59A]
[Q] CC1(c2ccc(Cl)cn2)C(=O)Nc2nc(-c3cn4ccnc4c(CCC(F)(F)C(F)(F)F)n3)nc(O)c21 (stereo not drawn) [Example 17A]
Prompt: Between the entries labelled P and Q , which has a larger EC50 value on record? Respond with the label that goes with your answer.
Completion: Q
